Cited source: patent US20010049372A1

# assay-summary: Pharmacokinetic study in male and female rats (single dose iv or po)
# Format: in vivo, rat
# condition: plasma; female rat, iv 10 mg/kg; read-out: Cmax
attribute-measured: Cmax
Don't forget the unit after the number, please.

The recorded Cmax for entry Nc1nc(NC2CC2)c2ncn([C@H]3CO[C@@H](CO)O3)c2n1 [Compound A (-)] equals 22900 ng/mL

* * *

# assay-summary: Cellular toxicity by [3H]-thymidine uptake
# Type: cell-based
# condition: human, HT1080 cells, Table 4, read-out: CC50 (μM) [^3H-]TTP incorporation in: HT1080
# Procedure: The cellular toxicity of the compounds were assessed on various cells using [^3H]-thymidine uptake. Various cells, including Molt-4, HT1080, DU-145, HepG-2 and HSF, were plated at a concentration of 1-2×10^3 cells per well (96 well plates). […] Using this instrument the extracted DNA is adsorbed onto filters, washed and the incorporated [^3H]-thymidine is then counted. […] Cellular toxicity was assessed by [^3H]thymidine uptake (de Muys et al. 1999) and WST-1 staining. […]
attribute-measured: CC50 at 72 h (µM)
Answers are plain numbers, in µM.

The recorded CC50 at 72 h for entry Nc1ccn([C@H]2CC[C@@H](CO)O2)c(=O)n1 [Zalcitabine, zalcitabine] equals 2

* * *

# assay-summary: Preliminary pharmacokinetic study in male adult rats
# Format: in vivo
# condition: male, plasma; rat, oral 20 mg/kg; read-out: Cmax
attribute-measured: Cmax (ng/mL)
Answers are plain numbers, in ng/mL.

[
  {
    "molecule": "Nc1nc(NC2CCC2)c2ncn([C@H]3CO[C@@H](CO)O3)c2n1 [Cmpd B (−)]",
    "unit-tag": "ng/mL",
    "test-result": 1120
  }
]

--- query ---
The recorded Cmax for entry Nc1nc(NC2CC2)c2ncn([C@H]3CO[C@@H](CO)O3)c2n1 [Compound A (-)] equals 4200

* * *

# Test system: CBMCs
# assay-summary: Cellular toxicity by WST-1 staining
# Assay type: cell-based
# condition: Table 4, day 7, read-out: CC50 (μM) WST-1 CBMC
Give CC50 for every item shown.

Could I get CC50 for every one of these entries?
1. Nc1nc(N)c2ncn([C@H]3CO[C@@H](CO)O3)c2n1 [DAPD, (−)-β-D -2,6-diaminopurine dioxolane]
2. Nc1nc2c(ncn2[C@H]2CO[C@@H](CO)O2)c(=O)[nH]1 [DXG, (−)-β-D -1,3-dioxolane guanine]

Reply |
1. > 100 µM
2. > 100 µM

* * *

# assay-summary: Pharmacokinetic study in male and female rats (single dose iv or po)
# Type: in vivo, rat
# condition: plasma; male rat, po 20 mg/kg
attribute-measured: bioavailability (%)
Give bare numbers, in %.

The recorded bioavailability for entry Nc1nc(NC2CC2)c2ncn([C@H]3CO[C@@H](CO)O3)c2n1 [Compound A (-)] equals 99

* * *

# System: Molt-4
# assay-summary: Cellular toxicity by [3H]-thymidine uptake
# Assay type: cell-based
# condition: Table 4; 72 hrs; read-out: CC50 (μM) [^3H-]TTP incorporation in: Molt-4
attribute-measured: CC50

The recorded CC50 for entry Nc1nc(N)c2ncn([C@H]3CO[C@@H](CO)O3)c2n1 [DAPD, (−)-β-D -2,6-diaminopurine dioxolane] equals > 500 µM

* * *

# assay-summary: Preliminary pharmacokinetic study in male adult rats
# Assay type: in vivo
# condition: rat, oral 20 mg/kg
Give Oral BA (%) for every item shown.
Don't forget the unit after the number, please.

[
  {
    "compound": "Nc1nc(NC2CCC2)c2ncn([C@H]3CO[C@@H](CO)O3)c2n1 [Cmpd B (−)]",
    "attribute-measured": "Oral BA (%)",
    "test-result": "13.75%"
  },
  {
    "compound": "Nc1nc(NC2CC2)c2ncn([C@H]3CO[C@@H](CO)O3)c2n1 [Compound A (-)]",
    "attribute-measured": "Oral BA (%)",
    "test-result": "45.56%"
  }
]

Could I get Oral BA (%) for every one of these entries?
1. Nc1nc2c(ncn2[C@H]2CO[C@@H](CO)O2)c(=O)[nH]1 [DXG, (−)-β-D -1,3-dioxolane guanine]
2. Nc1nc(N)c2ncn([C@H]3CO[C@@H](CO)O3)c2n1 [DAPD, (−)-β-D -2,6-diaminopurine dioxolane]

Reply |
1. 4.43%
2. 7.42%

* * *

# assay-summary: Cellular toxicity by [3H]-thymidine uptake
# Format: cell-based
# condition: human, HepG2 cells, Table 4, read-out: CC50 (μM) [^3H-]TTP incorporation in: HepG2
# Protocol: The cellular toxicity of the compounds were assessed on various cells using [^3H]-thymidine uptake. Various cells, including Molt-4, HT1080, DU-145, HepG-2 and HSF, were plated at a concentration of 1-2×10^3 cells per well (96 well plates). […] Using this instrument the extracted DNA is adsorbed onto filters, washed and the incorporated [^3H]-thymidine is then counted. […] Cellular toxicity was assessed by [^3H]thymidine uptake (de Muys et al. 1999) and WST-1 staining. […]
attribute-measured: CC50 at 72 h (µM)
Answers are plain numbers, in µM.

The recorded CC50 at 72 h for entry Nc1ccn([C@H]2CC[C@@H](CO)O2)c(=O)n1 [Zalcitabine, zalcitabine] equals 7

* * *

# Test system: HIV-1macBAL
# assay-summary: Anti-HIV-1 assay, dual tropic strain (p24)
# Format: cell-based
# condition: Human immunodeficiency virus 1, m/m cells, determined by p24
attribute-measured: pEC50
One number for each entry, as −log10 of the molar value.

The recorded pEC50 for entry Nc1nc(NC2CC2)c2ncn([C@H]3CO[C@@H](CO)O3)c2n1 [Compound A (-)] equals 7.66

* * *

# System: HSF
# assay-summary: Cellular toxicity by [3H]-thymidine uptake
# Type: cell-based
# condition: Table 4; 72 hrs; read-out: CC50 (μM) [^3H-]TTP incorporation in: HSF
attribute-measured: CC50

The recorded CC50 for entry Nc1nc2c(ncn2[C@H]2CO[C@@H](CO)O2)c(=O)[nH]1 [DXG, (−)-β-D -1,3-dioxolane guanine] equals ≥ 500 µM

* * *

# System: PBMCs
# assay-summary: Cellular toxicity by [3H]-thymidine uptake
# Format: cell-based, human
# condition: Table 4; 72 hrs; read-out: CC50 (μM) [^3H-]TTP incorporation in: PBMC
attribute-measured: CC50

The recorded CC50 for entry Nc1nc(N)c2ncn([C@H]3CO[C@@H](CO)O3)c2n1 [DAPD, (−)-β-D -2,6-diaminopurine dioxolane] equals > 500 µM

* * *

# assay-summary: Pharmacokinetic study in male and female rats (single dose iv or po)
# Type: in vivo, rat
# condition: plasma; female rat, po 20 mg/kg; read-out: Cmax
attribute-measured: Cmax (ng/mL)
Numbers only, in ng/mL.

The recorded Cmax for entry Nc1nc(NC2CC2)c2ncn([C@H]3CO[C@@H](CO)O3)c2n1 [Compound A (-)] equals 5500

* * *

# assay-summary: Pharmacokinetic study in male and female rats (single dose iv or po)
# Assay type: in vivo, rat
# condition: parameters of DAPD & DXG after administration of DAPD; male rat, po 20 mg/kg
attribute-measured: T1/2

The recorded T1/2 for entry Nc1nc(N)c2ncn([C@H]3CO[C@@H](CO)O3)c2n1 [DAPD, (−)-β-D -2,6-diaminopurine dioxolane] equals 34 min

* * *

# assay-summary: Preliminary pharmacokinetic study in male adult rats
# Format: in vivo
# condition: male, plasma; rat, oral 20 mg/kg; read-out: AUC
attribute-measured: AUC (ng·h/mL)
Answers are plain numbers, in ng·h/mL.

[
  {
    "compound": "Nc1nc(NC2CC2)c2ncn([C@H]3CO[C@@H](CO)O3)c2n1 [Compound A (-)]",
    "attribute-measured": "AUC",
    "test-result": 8640
  }
]

--- query ---
The recorded AUC for entry Nc1nc(NC2CCC2)c2ncn([C@H]3CO[C@@H](CO)O3)c2n1 [Cmpd B (−)] equals 3080

* * *

Give CC50 at 72 h for every item shown.
# assay-summary: Cellular toxicity by [3H]-thymidine uptake
# Type: cell-based, human
# condition: human, Table 14, PHA-stimulated PBMCs, read-out: CC50 (μM) [^3H]TTP incorporation in: PBMC
# Experimental: Cellular toxicity was assessed by [^3H]thymidine uptake (de Muys et al. 1999) and WST-1 staining. In the [^3H]thymidine uptake experiments, Molt-4, HT1080, DU-145, HepG2 and HSF, were plated at a concentration of 1-2×10^3 cells per well (96 well plates). PHA-stimulated PBMCs were cultured at a concentration of 4×10^4 cells per well. Following a 24 hr pre-incubation period, test compounds (10^−4 M to 10^−10 M) were added and the cells were incubated for an additional 72 hrs. […]

Solved cases (3 shown):
[
  {
    "compound": "Nc1nc(NC2CC2)c2ncn([C@H]3CO[C@@H](CO)O3)c2n1 [Compound A (-)]",
    "CC50 at 72 h": "286 µM"
  },
  {
    "compound": "Nc1ccn([C@H]2CC[C@@H](CO)O2)c(=O)n1",
    "CC50 at 72 h": "35.5 µM"
  },
  {
    "compound": "Cc1cn([C@H]2C[C@H](N=[N+]=[N-])[C@@H](CO)O2)c(=O)[nH]c1=O",
    "CC50 at 72 h": "9 µM"
  }
]

--- query ---
The recorded CC50 at 72 h for entry Nc1ccn([C@@H]2CS[C@H](CO)O2)c(=O)n1 equals > 500 µM
